This collection of values is drawn from patent US20090028788A1.

target: purified human αvβ3 integrin protein (human, UniProt P06756 31-1048; P05106 27-788); construct: Bought heterodimer; also called ABI; purified αvβ3 integrin; assay: competition with 125I-echistatin on purified human αvβ3 integrin, filter plate

substance: Cypate(Octreotate)1-(Arg-Gly-Asp-NH2)1 (peptide)
IC50 (µM): 4.67
